Tested on: U251 CNS
Assay: NCI-60 one-dose screen, 48 h
Conditions: 10 µM unless noted
This is part of a sample that, as a whole, favours compounds with a hit. Of some 83,000 tested, about 20% had one in any assay. Active and inactive are the calls of the source. Rule for the calls: active = growth percent below 10; inactive = the rest.
Outcome codes: yes (1) = active, no (0) = inactive

• CC(C)(C)[Si](C)(C)OC1[C@@H](CNC(=O)NC(=O)CCl)O[C@@H](n2cnc3c(N)ncnc32)[C@H]1O[Si](C)(C)C(C)(C)C (stereo not given in full) = yes (1)
• O=C(N/N=C(\CS(=O)(=O)c1ccccc1)c1cc2ccccc2oc1=O)c1ccccc1 = no (0)
• O=C1OCC2=C1C(c1ccc3c(c1)OCO3)CC(=O)N2c1cccc(Cl)c1 (stereo not given) = no (0)
• NC1=NC(c2ccccc2OS(=O)(=O)c2ccc(Br)cc2)n2c(nc3ccccc32)N1 (stereo not given) = no (0)
• Clc1cccc(Cl)c1Nc1ccc2nnc(-c3ccncc3)n2n1 = no (0)
• Clc1ccc(C2=Nc3cccc4cccc(c34)N2)cc1Cl = no (0)
• CCCCc1ccc(NC(=O)C(F)(F)F)cc1 = no (0)
• Cn1c2ccc(Cl)cc2c2nn(C(=O)c3ccccc3)c(=O)nc21 = no (0)
• CC(=O)N(CC(O)CO)c1c(I)c(C(=O)NCCO)c(I)c(C(=O)NCC(O)CO)c1I (stereo not given) = no (0)
• O=C(N/N=C/c1ccc(OC(F)F)c(OC2CCCC2)c1)c1cnn2c1NC(c1ccccc1)C2 (stereo not given) = no (0)
• COc1cc(/C=N/NC(=O)c2cnn3c2NC(c2ccccc2)C3)ccc1OC1CCCC1 (stereo not given) = no (0)
• COc1cc(/C=C2\C(=O)Nc3ccccc32)cc(OC)c1O = no (0)
• O=C1c2ccccc2-c2nnc(-c3ccc(Br)cc3)cc21 = no (0)
• CCCN1CCN(c2ccc3nc(-c4ccc5nc(-c6ccc(C(F)(F)F)cc6)[nH]c5c4)[nH]c3c2)CC1 = yes (1)
• CCN1C(=O)C2(Nc3ccccc3S2)c2cc(C)ccc21 (stereo not given) = no (0)
• CCN(c1ccc(C(=O)N2CCN(c3ccccc3)CC2)cc1)S(C)(=O)=O = no (0)
• CC(=O)Nc1ccc(Sc2ccc([N+](=O)[O-])o2)cc1 = no (0)
• COc1cc(CNCCN2C(=O)c3ccc4c5c(ccc(c35)C2=O)C(=O)N(CCNCc2cc(OC)c(OC)c(OC)c2)C4=O)cc(OC)c1OC = yes (1)
• O=C1CCC(N2Cc3c(C#CCCCNC(=O)c4cc5c(o4)C(=O)c4ccccc4C5=O)cccc3C2=O)C(=O)N1 (stereo not given) = yes (1)
• O=c1onc(-c2ccccc2)c2ccccc12 = no (0)

====

Test system: A498 renal
Assay: NCI-60 one-dose screen, 48 h (100 = growth as untreated, 0 = no growth, -100 = all killed)
Conditions: 10 µM unless noted
This is part of a sample that, as a whole, favours compounds with a hit. Of some 83,000 tested, about 20% had one in any assay.
measureName: growth (%)

• COc1ccc(S(=O)(=O)c2ccc(C(N)=O)cc2)cc1NC(=O)c1[nH]c(C)c2c1CCCCC2=O = 11.1
• Cc1oc2c(c1C(=O)N1CC[C@@H](N)C1)C(=O)c1c(c(O)c3ccccc3c1O)C2=O = 61.5
• Cc1ccc(-c2nnc(COc3ccc(-c4nnc(N)s4)cc3)o2)cc1 = 103
• CCCCC/C=C\C/C=C/CCCCCCCCNC(=O)Nc1ccc([N+](=O)[O-])cc1 = 83.7
• CCCCC(CCCC)(S(=O)(=O)CC)S(=O)(=O)CC = 88.7
• O=c1[nH]c(-c2ccncc2)nc2sc3c(c12)CCCCCC3 = 70.1
• CN1CCN(c2nc(-c3ccncc3)nc3sc4c(c23)CCCCCC4)CC1 = 31.7

This collection of values is drawn from PubChem BioAssay (NCI).
